Answer each item with its documented Human P-cadherin-Fc binding (OD450).
# testedTarget: T1, P-cadherin-ECD1-3-Fc protein (human P-cadherin-Fc) (human, UniProt P22223 108-440)
# T1 construct: Construct was expressed with signal peptide and pro-peptide (PACE co-transfected to process the propeptide); not shown: hinge and CH2 and CH3 domains of human IgG1
# T1 sequence (P22223 108-440): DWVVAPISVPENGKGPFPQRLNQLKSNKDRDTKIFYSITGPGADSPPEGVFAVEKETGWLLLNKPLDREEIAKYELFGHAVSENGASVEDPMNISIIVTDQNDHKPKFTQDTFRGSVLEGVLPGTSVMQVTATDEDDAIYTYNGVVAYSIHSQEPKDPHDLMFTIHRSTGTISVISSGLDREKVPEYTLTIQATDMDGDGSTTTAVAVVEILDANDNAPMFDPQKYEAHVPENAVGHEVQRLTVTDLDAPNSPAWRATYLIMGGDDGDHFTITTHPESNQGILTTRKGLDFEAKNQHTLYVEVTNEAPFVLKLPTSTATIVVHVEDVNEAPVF
# runDescription: phage scFv ELISA, coated P-cadherin-ECD1-3-Fc
Reply with just the number (in OD450).

Field Human P-cadherin-Fc binding (OD450) (entry anti-P-cadherin scFv 153 alanine-mutant H3.5-Ala (scFv, V domains shown, scFv on phage) VH: EVQLVQSGAEVKKPGASVKVSCKASGYTFTSYGISWVRQAPGQGLEWMGWISAYNGNTNYAQKLQGRVTMTTDTSTSTAYMELRSLRSDDTAVYYCATIDTAAAFGIWGQGTMVTVSS VL: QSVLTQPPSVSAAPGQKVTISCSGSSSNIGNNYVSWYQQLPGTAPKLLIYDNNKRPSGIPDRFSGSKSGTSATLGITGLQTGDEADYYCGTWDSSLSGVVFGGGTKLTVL ) reads 0.77

Field Human P-cadherin-Fc binding (OD450) (entry anti-P-cadherin scFv 153 alanine-mutant H2.7-Ala (scFv, V domains shown, scFv on phage) VH: EVQLVQSGAEVKKPGASVKVSCKASGYTFTSYGISWVRQAPGQGLEWMGWISAYNANTNYAQKLQGRVTMTTDTSTSTAYMELRSLRSDDTAVYYCATIDTANAFGIWGQGTMVTVSS VL: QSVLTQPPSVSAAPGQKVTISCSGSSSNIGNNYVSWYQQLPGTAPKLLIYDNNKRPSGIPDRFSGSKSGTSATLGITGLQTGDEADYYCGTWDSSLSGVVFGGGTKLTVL ) reads 1.5

Field Human P-cadherin-Fc binding (OD450) (entry anti-P-cadherin scFv 153 alanine-mutant H1.5-Ala (scFv, V domains shown, scFv on phage) VH: EVQLVQSGAEVKKPGASVKVSCKASGYTFASYGISWVRQAPGQGLEWMGWISAYNGNTNYAQKLQGRVTMTTDTSTSTAYMELRSLRSDDTAVYYCATIDTANAFGIWGQGTMVTVSS VL: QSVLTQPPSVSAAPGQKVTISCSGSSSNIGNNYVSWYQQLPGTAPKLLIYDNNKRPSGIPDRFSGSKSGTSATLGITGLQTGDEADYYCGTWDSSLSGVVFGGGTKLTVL ) reads 2.05

Field Human P-cadherin-Fc binding (OD450) (entry anti-P-cadherin scFv 153 alanine-mutant H1.4-Ala (scFv, V domains shown, scFv on phage) VH: EVQLVQSGAEVKKPGASVKVSCKASGYTATSYGISWVRQAPGQGLEWMGWISAYNGNTNYAQKLQGRVTMTTDTSTSTAYMELRSLRSDDTAVYYCATIDTANAFGIWGQGTMVTVSS VL: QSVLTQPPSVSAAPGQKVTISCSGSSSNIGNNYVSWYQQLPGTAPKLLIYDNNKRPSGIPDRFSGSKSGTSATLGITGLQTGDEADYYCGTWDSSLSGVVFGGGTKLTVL ) reads 2.33

Field Human P-cadherin-Fc binding (OD450) (entry anti-P-cadherin scFv 153 alanine-mutant H2.13-Ala (scFv, V domains shown, scFv on phage) VH: EVQLVQSGAEVKKPGASVKVSCKASGYTFTSYGISWVRQAPGQGLEWMGWISAYNGNTNYAAKLQGRVTMTTDTSTSTAYMELRSLRSDDTAVYYCATIDTANAFGIWGQGTMVTVSS VL: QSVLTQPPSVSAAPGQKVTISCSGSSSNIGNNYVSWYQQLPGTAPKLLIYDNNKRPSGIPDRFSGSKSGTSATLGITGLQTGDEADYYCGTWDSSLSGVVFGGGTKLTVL ) reads 2.01
